# pKi listing for each entry below
target: T1, Human EphA2 (Ecto) (Human, UniProt P29317 24-537); experiment: FP competition; competitor Compound 18
T1 construct: extracellular domain
T1 sequence (P29317 24-537): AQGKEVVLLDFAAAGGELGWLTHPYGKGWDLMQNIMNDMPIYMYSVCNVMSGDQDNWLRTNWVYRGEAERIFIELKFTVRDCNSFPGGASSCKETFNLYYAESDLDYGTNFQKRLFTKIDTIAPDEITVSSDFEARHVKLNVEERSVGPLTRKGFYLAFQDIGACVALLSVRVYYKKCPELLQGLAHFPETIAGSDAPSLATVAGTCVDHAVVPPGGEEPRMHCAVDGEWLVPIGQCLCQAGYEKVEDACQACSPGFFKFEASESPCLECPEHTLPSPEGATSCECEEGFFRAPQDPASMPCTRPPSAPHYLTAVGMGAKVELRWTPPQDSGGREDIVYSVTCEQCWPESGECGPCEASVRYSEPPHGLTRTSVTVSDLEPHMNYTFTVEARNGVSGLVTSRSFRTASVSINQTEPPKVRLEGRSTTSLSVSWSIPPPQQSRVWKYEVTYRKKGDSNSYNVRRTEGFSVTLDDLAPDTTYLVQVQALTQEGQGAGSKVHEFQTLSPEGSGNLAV
pKi: −log10 of the molar value. Numbered stars: 1 amine (or outer) side, 2 acyl side, 3 side chain; on linkers, the order of the positions; unused ones are H or OH. Bridge positions count the residues as written; N and C are the ends. Square brackets hold non-standard residues; d marks the D form. Ends that are not written are not given here. 1Nal = N[C@@H](Cc1cccc2ccccc12)C(=O)O; TBMB = c1c(C[*:1])cc(C[*:3])cc1C[*:2]; βAla = NCCC(=O)O; Sar = CNCC(=O)O

binder	pKi
[Sar][Sar]ACP[1Nal]GPF[1Nal]CPVNRPGC (linker 4-11-18 via TBMB) [Compound 120]	8.85
Ac-[Sar][Sar]AH[dD]VPCPWGPFWCPVNRPGC (linker 8-15-22 via TBMB) [Compound 210]	8.96
[βAla][Sar][Sar][Sar][Sar][Sar][Sar][Sar][Sar][Sar][Sar]HDVPCPWGPFWCPVNRPGC (linker 16-23-30 via TBMB) [Compound 223]	8.89
